target: pig TRPM8 (Sus scrofa, UniProt F1SM15); construct: expressed in transfected cells; host or cells: CHO (pcDNA5/FRT/TO vector; hygromycin B and blasticidin selection); test: In vitro pig TRPM8 automated patch-clamp assay (SyncroPatch 384PE, CHO cells); format: cell-based; settings: CHO cells expressing pig TRPM8, 28° C.
Sequence (F1SM15 1-1104): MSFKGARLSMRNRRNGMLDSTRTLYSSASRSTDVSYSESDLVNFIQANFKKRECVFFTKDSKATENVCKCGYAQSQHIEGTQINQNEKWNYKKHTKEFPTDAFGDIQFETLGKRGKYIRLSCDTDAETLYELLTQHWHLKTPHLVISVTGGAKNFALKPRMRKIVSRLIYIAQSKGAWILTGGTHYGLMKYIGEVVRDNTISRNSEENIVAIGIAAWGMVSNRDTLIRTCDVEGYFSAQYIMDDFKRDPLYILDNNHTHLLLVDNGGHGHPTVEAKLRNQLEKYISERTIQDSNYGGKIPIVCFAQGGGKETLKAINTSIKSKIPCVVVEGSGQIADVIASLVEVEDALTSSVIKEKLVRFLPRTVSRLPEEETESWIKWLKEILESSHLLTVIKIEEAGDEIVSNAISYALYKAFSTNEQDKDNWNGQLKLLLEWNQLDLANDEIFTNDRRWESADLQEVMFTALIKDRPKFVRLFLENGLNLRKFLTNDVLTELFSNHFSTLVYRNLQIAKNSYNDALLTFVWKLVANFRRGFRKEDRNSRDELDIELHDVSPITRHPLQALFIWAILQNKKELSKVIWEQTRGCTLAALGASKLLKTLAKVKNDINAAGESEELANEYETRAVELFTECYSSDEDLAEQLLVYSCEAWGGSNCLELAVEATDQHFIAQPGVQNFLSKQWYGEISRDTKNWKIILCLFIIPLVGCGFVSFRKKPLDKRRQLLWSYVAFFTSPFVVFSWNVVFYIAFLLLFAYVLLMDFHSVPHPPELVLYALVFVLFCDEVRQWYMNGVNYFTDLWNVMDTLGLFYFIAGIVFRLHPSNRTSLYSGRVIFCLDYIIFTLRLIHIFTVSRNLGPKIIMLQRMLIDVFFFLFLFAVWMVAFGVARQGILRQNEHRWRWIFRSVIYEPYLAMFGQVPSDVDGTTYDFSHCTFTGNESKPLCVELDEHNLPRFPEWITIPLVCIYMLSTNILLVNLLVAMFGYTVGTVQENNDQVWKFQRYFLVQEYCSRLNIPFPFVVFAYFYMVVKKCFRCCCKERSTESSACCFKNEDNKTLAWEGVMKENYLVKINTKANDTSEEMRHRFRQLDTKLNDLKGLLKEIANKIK
pEC50: −log10 of the molar value. Counter-ions that a name gives are not always drawn.
readout: pEC50

Example molecules with recorded pEC50:
| molecule | pEC50 |
| --- | --- |
| CC(C)[C@@H]1CC[C@@H](C)C[C@@]1(O)C(=O)NC[C@H](F)c1ccccc1 | 6.22 |
| CC(C)[C@@H]1CC[C@@H](C)C[C@@]1(O)C(=O)NCCc1ccccc1OC[C@@H](O)CO | 5.47 |
| CC(C)[C@@H]1CC[C@@H](C)C[C@@]1(O)C(=O)NCC(O)c1ccccc1O (stereo partly shown) | 5.88 |

[1] CC(C)[C@@H]1CC[C@@H](C)C[C@@]1(O)C(=O)NCCc1ccccc1C(=O)OCCO
[2] CC(C)[C@@H]1CC[C@@H](C)C[C@@]1(O)C(=O)NCCc1ccccn1
[3] CC(C)[C@@H]1CC[C@@H](C)C[C@@]1(O)C(=O)NCC(O)c1cccc(O)c1 (stereo partly shown)
[4] COC(=O)C(CNC(=O)[C@]1(O)C[C@H](C)CC[C@H]1C(C)C)c1ccccc1 (stereo partly shown)
Input line: Sequence the entries by pEC50, beginning with the highest number. Please reply with the labels ordered as requested. Many thanks.
Output line: 3, 4, 1, 2

[P] CC(C)[C@@H]1CC[C@@H](C)C[C@@]1(O)C(=O)NCCc1ccccc1OCC(O)CO (stereo partly shown)
[Q] CC(C)OC(=O)CNC(=O)[C@]1(O)C[C@H](C)CC[C@H]1C(C)C
Input line: Lower pEC50: P or Q ? When you have decided, please share the label of that item.
Output line: Q

[I] CC(C)[C@@H]1CC[C@@H](C)C[C@@]1(O)C(=O)NCCc1cccc(OCC(O)CO)c1 (stereo partly shown)
[II] CC(C)[C@@H]1CC[C@@H](C)C[C@@]1(O)C(=O)NCC1(O)CCc2ccc(Cl)cc21 (stereo partly shown)
Input line: Kindly identify which of I and II has the larger recorded pEC50 value. Which one? Tell me its label.
Output line: II

[I] CC(C)[C@@H]1CC[C@@H](C)C[C@@]1(O)C(=O)NCCc1ccccc1OCC[N+](C)(C)C
[II] CC(C)[C@@H]1CC[C@@H](C)C[C@@]1(O)C(=O)NCCc1cccc(C(N)=O)c1
Input line: Could you kindly indicate whether I or II has the higher pEC50 value? Identify your selection by its label.
Output line: II

[I] CC(C)[C@@H]1CC[C@@H](C)C[C@@]1(O)C(=O)NCC(=O)c1cccc(F)c1F
[II] CC(C)[C@@H]1CC[C@@H](C)C[C@@]1(O)C(=O)NCCc1ccccc1C(=O)OCCN [Example 13, hydrochloride]
Input line: Which record shows the lower pEC50: the first, I , or the second, II ? Which one? Tell me its label.
Output line: I
(I: 5.48, II: 6.11)
